Values were extracted from ChEMBL document CHEMBL1143786.

- target or test system: Cannabinoid receptor 1 (Homo sapiens, UniProt P21554)
- Sequence (P21554 whole entry): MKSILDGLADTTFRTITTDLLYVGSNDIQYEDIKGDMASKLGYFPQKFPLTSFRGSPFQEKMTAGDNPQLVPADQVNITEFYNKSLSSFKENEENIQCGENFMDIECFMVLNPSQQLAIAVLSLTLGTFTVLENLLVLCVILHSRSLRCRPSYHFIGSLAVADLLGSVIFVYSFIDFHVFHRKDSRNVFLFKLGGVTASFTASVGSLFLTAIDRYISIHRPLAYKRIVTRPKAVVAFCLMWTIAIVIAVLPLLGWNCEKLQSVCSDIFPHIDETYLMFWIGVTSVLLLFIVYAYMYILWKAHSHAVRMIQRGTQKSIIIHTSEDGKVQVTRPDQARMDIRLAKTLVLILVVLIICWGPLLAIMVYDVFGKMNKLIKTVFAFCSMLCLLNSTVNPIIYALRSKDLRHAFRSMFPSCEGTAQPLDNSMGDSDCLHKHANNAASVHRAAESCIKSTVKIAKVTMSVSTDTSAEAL
pKi: −log10 of the molar value.
Label 1.0 when pKi >= 8; otherwise 0.0.

[
  {
    "input smiles": "Cc1cn(-c2ccc(Cl)cc2Cl)c2c1C(=O)N(C1CCCCC1)CC2",
    "target or test system": "Cannabinoid receptor 1 (Homo sapiens, UniProt P21554)",
    "label class": 0.0
  },
  {
    "input smiles": "Cc1c2c(n(-c3ccccc3Cl)c1-c1ccc(Cl)cc1)CCN(N1CCCCC1)C2=O",
    "target or test system": "Cannabinoid receptor 1 (Homo sapiens, UniProt P21554)",
    "label class": 1.0
  }
]

Exercise: Answer whether pKi of `COc1ccc(-c2c(C)c3c(n2-c2ccccc2Cl)CCN(N2CCCCC2)C3=O)cc1` is greater than or equal to 8.
Solution: 0.0

Exercise: Similarly, `Cc1c2c(n(-c3ccc(Cl)cc3Cl)c1-c1ccc(C(F)(F)F)cc1)CCN(C1CCCCC1)C2=O` ?
Solution: 1.0

Exercise: Similarly, `COc1ccc(-c2c(C)c3c(n2-c2ccccc2C)CCN(N2CCCCC2)C3=O)cc1` ?
Solution: 0.0

Exercise: Similarly, `CSc1ccc(-c2c(C)c3c(n2-c2ccc(Cl)cc2Cl)CCN(C2CCCCC2)C3=O)cc1` ?
Solution: 0.0

Exercise: Similarly, `COc1ccc(-c2c(C)c3c(n2-c2ccc(Cl)cc2Cl)CCN(C2CCCCC2)C3=O)cc1OC` ?
Solution: 1.0

Exercise: Similarly, `Cc1c2c(n(-c3ccc(Cl)cc3Cl)c1-c1cccc(N)c1)CCN(C1CCCCC1)C2=O` ?
Solution: 0.0

Exercise: Similarly, `Cc1c2c(n(-c3ccc(Cl)cc3Cl)c1-c1ccc(N)cc1)CCN(C1CCCCC1)C2=O` ?
Solution: 0.0

Exercise: Similarly, `Cc1c2c(n(-c3c(Cl)cccc3Cl)c1-c1ccc(Cl)cc1)CCN(C1CCCCC1)C2=O` ?
Solution: 0.0

Exercise: Similarly, `Cc1c2c(n(-c3ccc(Cl)cc3)c1-c1ccc(Cl)cc1)CCN(C1CCCCC1)C2=O` ?
Solution: 0.0

Exercise: Similarly, `Cc1c2c(n(-c3ccc(Cl)cc3Cl)c1-c1ccc(C(=O)O)cc1)CCN(C1CCCCC1)C2=O` ?
Solution: 0.0

Exercise: Similarly, `Cc1c2c(n(-c3ccccc3Cl)c1-c1ccc(Cl)cc1)CCN(C1CCCCC1)C2=O` ?
Solution: 1.0

###

- protocol notes: AUC ( 0 to 2 hrs) in Wistar rat at 10 mg/kg, po
- Assay type: ADME, organism-based
- Parameters: time < 2 hr, dose 10 mg/kg, route oral
- particulars: plasma
measured quantity: AUC(0-t) at 2 h (µM·h)
Answers are plain numbers, in µM·h.

Exercise: What value of AUC(0-t) at 2 h has been recorded for this entry: `COc1ccc(-c2c(C)c3c(n2-c2ccccc2Cl)CCN(N2CCCCC2)C3=O)cc1`
Solution: 0.58

###

- target or test system: UniProtKB P21554
- protocol notes: Displacement of [3H]CP-55940 from human CB1 receptor expressed in HEK cells
- Type: cell-based, HEK293
# if measured IC50 < 20 nM: yes (1)  # else: no (0)

Reference set, count: 3
[
  {
    "input smiles": "Cc1c2c(n(-c3ccc(Cl)cc3Cl)c1-c1ccccc1)CCN(C1CCCCC1)C2=O",
    "label class": "yes (1)"
  },
  {
    "input smiles": "Cc1c2c(n(-c3ccc(Cl)cc3Cl)c1-c1ccsc1)CCN(C1CCCCC1)C2=O",
    "label class": "no (0)"
  },
  {
    "input smiles": "Cc1c2c(n(-c3ccc(Cl)cc3Cl)c1-c1cc3ccccc3s1)CCN(C1CCCCC1)C2=O",
    "label class": "no (0)"
  }
]

Exercise: Lab note: confirm whether the reported IC50 for this compound is below 20 nM, equality not counting. compound: `Cc1c2c(n(-c3ccc(Cl)cc3Cl)c1-c1cccs1)CCN(C1CCCCC1)C2=O`
Solution: yes (1)

Exercise: Similarly, `Cc1c2c(n(-c3ccc(Cl)cc3Cl)c1-c1ccc3c(c1)OCO3)CCN(C1CCCCC1)C2=O` ?
Solution: yes (1)

###

Provide the reported pIC50 of each item.
- target or test system: Cannabinoid receptor 1 (Homo sapiens)
- protocol notes: Displacement of [3H]CP-55940 from human CB1 receptor expressed in HEK cells
Numbers only, as −log10 of the molar value.

Hi, could you look up pIC50 for each item in my list?
1. Cc1c2c(n(-c3ccc(Cl)cc3Cl)c1-c1ccco1)CCN(C1CCCCC1)C2=O
2. Cc1ccccc1-n1c2c(c(C)c1-c1ccc(F)cc1)C(=O)N(C1CCCCC1)CC2
3. Cc1cccc(-c2c(C)c3c(n2-c2ccc(Cl)cc2Cl)CCN(C2CCCCC2)C3=O)c1
4. COc1cccc(-c2c(C)c3c(n2-c2ccc(Cl)cc2Cl)CCN(C2CCCCC2)C3=O)c1
5. COc1ccc(-c2c(C)c3c(n2-c2ccccc2C)CCN(C2CCCCC2)C3=O)cc1

Solution:
7.70
7.40
7.77
8.17
7.66

Hi, could you look up pIC50 for each item in my list?
1. Cc1ccccc1-n1c2c(c(C)c1-c1ccc(C(F)(F)F)cc1)C(=O)N(C1CCCCC1)CC2
2. Cc1c2c(n(-c3ccc(Cl)cc3Cl)c1-c1cccc(C(F)(F)F)c1)CCN(C1CCCCC1)C2=O

Solution:
1: 8.03; 2: 7.17

###

Provide the reported Ki of each item.
- target or test system: Cannabinoid receptor 1 (Homo sapiens)
- protocol notes: Displacement of [3H]CP-55940 from human CB1 receptor expressed in HEK cells
- Type: cell-based, HEK293
Give bare numbers, in nM.

[
  {
    "input smiles": "C=Cc1ccc(-c2c(C)c3c(n2-c2ccc(Cl)cc2Cl)CCN(C2CCCCC2)C3=O)cc1",
    "unit text": "nM",
    "Ki": 9.8
  },
  {
    "input smiles": "COc1ccc(-c2c(C)c3c(n2-c2ccc(Cl)cc2Cl)CCN(C2CCCCC2)C3=O)cc1",
    "unit text": "nM",
    "Ki": 7.9
  },
  {
    "input smiles": "COc1ccc(-c2c(C)c3c(n2-c2ccccc2Cl)CCN(C2CCCCC2)C3=O)cc1",
    "unit text": "nM",
    "Ki": 7.5
  }
]

Hi, could you look up Ki for each item in my list?
1. Cc1c2c(n(-c3ccc(Cl)cc3Cl)c1-c1ccc(F)cc1)CCN(C1CCCCC1)C2=O
2. Cc1ccc(-c2c(C)c3c(n2-c2ccc(Cl)cc2Cl)CCN(C2CCCCC2)C3=O)cc1

Solution:
1. 6
2. 10
